Data provenance: patent US20220370453A1

tested.on: BCDIN3D (Homo sapiens)
Sequence (Q7Z5W3 1-292): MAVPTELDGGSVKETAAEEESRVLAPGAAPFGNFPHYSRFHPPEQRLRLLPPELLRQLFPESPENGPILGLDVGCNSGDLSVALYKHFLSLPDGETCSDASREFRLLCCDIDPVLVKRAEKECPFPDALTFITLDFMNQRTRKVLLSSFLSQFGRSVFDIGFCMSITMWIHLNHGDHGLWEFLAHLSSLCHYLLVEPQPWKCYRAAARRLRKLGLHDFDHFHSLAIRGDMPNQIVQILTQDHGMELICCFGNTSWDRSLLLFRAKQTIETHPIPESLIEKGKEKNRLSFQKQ
protocol.text: BCDIN3D IC50 RFMS (RapidFire) assay with mini-helix
Type: biochemical
settings: mini-helix 0.2 μM and SAM 6 μM as substrates, 25 nM enzyme, 1 hr at 37° C.
Please respond with rule met when measured IC50 is strictly beneath 5 µM, and with rule not met in all other cases.

> print(dat)
                                    compound  class.assignment
 1  Cn1ncc2c(NCC3CCN(C(=O)c4ccccc4)CC3)nc(NCCN)nc21      rule not met
 2     Cn1ncc2c(NCc3ccc(Cl)cc3F)nc(NCCN)nc21          rule met
 3  Cn1ncc2c(Nc3ccc(C(F)(F)F)nc3)nc(NCC3(N)CCOCC3)nc21          rule met
 4  COc1ccc(C(C)Nc2nc(NCCN)nc3c2cnn3C)cc1Cl (stereo not drawn)          rule met
 5  Cn1ncc2c(Nc3ccc(C(F)(F)F)cc3)nc(NCCN)nc21          rule met
 6  Cn1ncc2c(NC(C)(C)C)nc(NC[C@@H](N)C3CCCCC3)nc21      rule not met
 7     COc1ccc(CCNc2nc(NCCN)nc3c2cnn3C)cc1Cl          rule met
 8      Cn1ncc2c(NCc3ccc(F)cc3F)nc(NCCN)nc21      rule not met
 9  Cn1ncc2c(Nc3ccc(C(F)(F)F)nc3)nc(NC[C@](C)(N)c3ccccc3)nc21 (single isomer, unassigned)          rule met
10  COc1ccc(C(=O)N2CCC(CNc3nc(NCCN)nc4c3cnn4C)CC2)cc1Cl      rule not met
11     Cn1ncc2c(NCc3ccc4occc4c3)nc(NCCN)nc21      rule not met
12  Cn1ncc2c(NCC3CCN(C(=O)OC(C)(C)C)CC3)nc(NCCN)nc21      rule not met
13  Cn1ncc2c(NCC3CCN(Cc4ccccc4)CC3)nc(NCCN)nc21      rule not met
14  Cc1nn(C)c2nc(NCC(C)(C)N)nc(NCc3ccc(-c4ccccc4)cc3)c12          rule met
15  COc1ccc(CNc2nc(NCC(C)(C)N)nc3c2cnn3C)cc1Cl          rule met
16  Cc1ccc(CNc2nc(N[C@H]3CCCC[C@H]3N)nc3c2cnn3C)cc1Cl          rule met
17  Cn1ncc2c(Nc3cccc(Oc4ccccc4)c3)nc(NCCN)nc21          rule met
18  Cn1ncc2c(Nc3cccc(C(F)(F)F)c3)nc(NCCN)nc21          rule met

----------
tested.on: BCDIN3D (Homo sapiens, UniProt Q7Z5W3)
Sequence (Q7Z5W3 1-292): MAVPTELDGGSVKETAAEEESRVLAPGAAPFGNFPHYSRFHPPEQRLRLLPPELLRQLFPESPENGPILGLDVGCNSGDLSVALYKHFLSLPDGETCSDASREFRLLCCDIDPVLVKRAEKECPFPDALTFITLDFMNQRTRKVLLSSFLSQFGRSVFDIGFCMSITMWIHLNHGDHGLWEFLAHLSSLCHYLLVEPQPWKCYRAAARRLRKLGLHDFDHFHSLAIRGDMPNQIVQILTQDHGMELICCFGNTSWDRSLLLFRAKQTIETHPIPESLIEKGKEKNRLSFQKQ
protocol.text: BCDIN3D IC50 RFMS (RapidFire) assay with mini-helix
Format: biochemical
settings: mini-helix substrate 0.2 μM, SAM 6 μM, 25 nM enzyme
This listing pairs compounds with measured log10(IC50).
measured.quantity: log10(IC50) (log10 of the value in nM)

> print(dat)
                                   compound  value.measured
1  CC(C)Nc1nc(NCC(N)c2ccccc2)nc2c1cnn2C (stereo not drawn) [Compound 4.46]            2.70
2  Cn1ncc2c(Nc3ccc(C(F)(F)F)cc3)nc(NCC3(N)CCOC3)nc21 (stereo not drawn) [Compound 3.14]            2.40
3  Cn1ncc2c(NC(C)(C)C)nc(NCC(C)(N)c3ccccc3)nc21 (stereo not drawn) [Compound 4.51]            2.76
4  Cn1ncc2c(N3CCCC3)nc(NCC(N)c3ccccc3)nc21 (stereo not drawn) [Compound 4.48]            3.59
5  Cn1ncc2c(NC(C)(C)C)nc(NC[C@H](N)c3ccc(C#N)cc3)nc21 [Compound 5.28]            1.95
6  Cn1ncc2c(Nc3ccc(OC(F)F)cc3)nc(NCC3(N)CC3)nc21 [Compound 2.34]            2.30
7  Cn1ncc2c(NCC3CC3(F)F)nc(NC[C@H](N)c3ccccc3)nc21 (stereo partly drawn) [Compound 4.61]            2.42
8  Cn1ncc2c(NC3CCC(F)(F)CC3)nc(NCC(N)c3ccccc3)nc21 (stereo not drawn) [Compound 4.68]            3.06
9  Cn1ncc2c(Nc3cccc(Cl)c3)nc(NCC3(N)CC3)nc21 [Compound 2.35]            2.41
